System: HepG2
Test: Cytotoxicity against human HepG2 cells at 100 uM after 24 hrs by Hoechst 33342 staining-based fluorescence assay
Format: cell-based
Settings: hepg2, 24 h

>  <molecule>
CCOc1ccc(Br)cc1CNCC1CCNCC1

>  <Activity>
Toxic

$$$$
>  <molecule>
CCCCc1oc2ccccc2c1C(=O)c1cc(I)c(OCCN(CC)CC)c(I)c1 [AMIODARONE]

>  <Activity>
Toxic

$$$$
>  <molecule>
Cc1cccc(C)c1C(OCCN(C)C)C1CCCCC1 (centres undefined)

>  <Activity>
Toxic

$$$$
